Could you please report measured pKd for the items listed next?
Target: T1, His-tagged MRP-14 (UniProt P06702 1-114, limits assumed)
T1 construct: Commercial His-tagged protein, captured on a Ni-NTA chip for SPR and coated on plates for the phage ELISA; The position of the His tag is unknown; its order in the chain is arbitrary; not shown: His tag
T1 sequence (looked up): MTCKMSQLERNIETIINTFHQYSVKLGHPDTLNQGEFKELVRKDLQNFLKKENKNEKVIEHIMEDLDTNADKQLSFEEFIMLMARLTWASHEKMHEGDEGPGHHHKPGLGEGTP
Assay: SPR, His-tagged MRP-14 on Ni-NTA chip, saturation binding curve fit
Positions of bridges follow the written chain, without caps; N, C: chain ends. Primed or numbered codes have the meaning given here. No end group written: not given here. PEG3′ = not defined here
Give bare numbers, as −log10 of the molar value.

Would you please look over these solved cases?
>  <binder>
ACNSVHQHHCGGGS-{PEG3′-azide} (disulfide 2-10 (inferred)) [MTP6-N3 (azide-functionalized MTP6)]

>  <observed>
4.25

$$$$
>  <binder>
HNHMADPGGGS-NH2 [MTP3 synthetic peptide HNHMADPGGGS]

>  <observed>
3.93

$$$$
>  <binder>
ACNSVHQHHCGGGS-NH2 (disulfide 2-10 (inferred), lead peptide) [MTP6 synthetic peptide ACNSVHQHHCGGGS]

>  <observed>
4.40

$$$$

Supply reported pKd belonging to this binder: ASSHIHHGGGS-NH2 [MTP2 synthetic peptide ASSHIHHGGGS]
4.11
